Data origin: patent US12344597B2

Tested target: human LPA1 receptor (Homo sapiens (Human))
Test summary: Beta-arrestin recruitment assay to determine IC50 values for human LPAR1
Run conditions: antagonist mode, Tango EDG2-bla U2OS cells, LPA 18:1 500 nM final
Record form. Attribute: pIC50. Fill in for each entry.
// returns pIC50 (minus log10 of molar concentration), number only

Recall and state the measured pIC50 for CC(C)c1ccccc1C1(C(=O)Nc2ncc(Br)cc2OC(F)F)CN(S(N)(=O)=O)C1 [Ex 81-4] .
8.70

Recall and state the measured pIC50 for Cc1ccc(NC(=O)C2(c3ccccc3C(C)C)CN(C(=O)COCCOCC(=O)OCc3ccccc3)C2)c(OC(F)F)n1 [Ex 12-106] .
7.23

Recall and state the measured pIC50 for COC(=O)c1cnc(N2CC(C(=O)Nc3ccc(C)nc3OC(F)F)(c3ccccc3C(C)C)C2)cn1 [Ex 18-8] .
8.00

Recall and state the measured pIC50 for Cc1ccc(NC(=O)C2(c3ccccc3C(C)C)CN(C(=O)C[C@@H](O)C(=O)O)C2)c(OC(F)F)n1 [Ex 12-35] .
7.39

Recall and state the measured pIC50 for COC(=O)CC(C)(C)NC(=O)N1CC(C(=O)Nc2ccc(C)nc2OC(F)F)(c2ccccc2C(C)C)C1 [Ex 17-1] .
7.74

Recall and state the measured pIC50 for Cc1ccc(NC(=O)C2(c3ccccc3C(C)C)CN(CCO)C2)c(OC(F)F)n1 [Ex 11-2] .
8.30

Recall and state the measured pIC50 for COC(=O)c1ccc(CN2CC(C(=O)Nc3ccc(C)nc3OC(F)F)(c3ccccc3C(C)C)C2)o1 [Ex 11-56] .
7.19

---

Tested target: human LPA1 receptor (Homo sapiens (Human), UniProt Q92633)
Sequence (Q92633 whole entry): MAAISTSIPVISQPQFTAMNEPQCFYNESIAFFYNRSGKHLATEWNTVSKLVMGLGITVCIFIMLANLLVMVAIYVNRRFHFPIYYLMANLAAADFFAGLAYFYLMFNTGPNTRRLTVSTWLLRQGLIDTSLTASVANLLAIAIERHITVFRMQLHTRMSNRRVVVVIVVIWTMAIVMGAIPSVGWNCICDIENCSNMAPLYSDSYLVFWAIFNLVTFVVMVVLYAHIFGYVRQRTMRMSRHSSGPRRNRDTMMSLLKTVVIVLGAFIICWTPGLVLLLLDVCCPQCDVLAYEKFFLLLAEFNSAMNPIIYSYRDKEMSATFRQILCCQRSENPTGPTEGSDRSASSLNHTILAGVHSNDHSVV
Test summary: Beta-arrestin recruitment assay to determine IC50 values for human LPAR1
Run conditions: antagonist mode, Tango EDG2-bla U2OS cells, LPA 18:1 500 nM final
Record form. Attribute: IC50. Fill in for each entry.
State the value with its unit after it.

Recall and state the measured IC50 for Cc1ccc(NC(=O)C2(c3ccccc3C(C)C)CN(CC(C)N)C2)c(OC(F)F)n1 (centres unmarked) [Ex 11-11] .
5 nM

Recall and state the measured IC50 for Cc1ccc(NC(=O)C2(c3ccccc3C(C)C)CN(C[C@@H](O)CN(C)C)C2)c(OC(F)F)n1 [Ex 11-85] .
191 nM

Recall and state the measured IC50 for Cc1ccc(NC(=O)C2(c3ccccc3C(C)C)CCN(S(=O)(=O)CCC(=O)O)CC2)c(OC(F)F)n1 [Ex 13-8] .
7 nM

Recall and state the measured IC50 for COC(=O)c1ccc(N2CC(C(=O)Nc3ccc(C)nc3OC(F)F)(c3ccccc3C(C)C)C2)nn1 [Ex 18-6] .
10 nM

Recall and state the measured IC50 for CCOC(=O)/C=C/C(=O)N1CC(C(=O)Nc2ccc(C)nc2OC(F)F)(c2ccccc2C(C)C)C1 [Ex 12-74] .
97 nM

Recall and state the measured IC50 for Cc1ccc(NC(=O)C2(c3ccccc3C(C)C)CN(C(=O)CCCC#N)C2)c(OC(F)F)n1 [Ex 12-1] .
15 nM

Recall and state the measured IC50 for CC(C)c1ccccc1C1(C(=O)Nc2cccnc2OC(F)F)CN(S(=O)(=O)CCC(=O)O)C1 [Ex 13-10] .
20 nM

Recall and state the measured IC50 for CCOC(=O)c1c[nH]nc1CN1CC(C(=O)Nc2ccc(C)nc2OC(F)F)(c2ccccc2C(C)C)C1 [Ex 11-39] .
10 nM
